The following compounds are listed with their measured activation (% of full agonist control) values.
Molecular target: Peroxisome proliferator-activated receptor gamma (Homo sapiens)
Assay: partial agonism at human PPARgamma receptor – cell-based, luciferase reporter, luminescence, primary screen (AID 504452);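 further: Cos-1 cells carrying PPARgamma and a response element luciferase reporter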
Conditions: cell-based PPARg luciferase reporter, at 5 µM, stronger effect = higher value; measured here: relative to full agonist control
Field format: number, assumed %, no unit text.

CC(=O)c1cccc(NC(=O)CSc2nc(=O)n(CCN3CCOCC3)c3c2CCCC3)c1 = 36.2

Challenge: Could you please provide reported activation (% of full agonist control) for Cc1cccc(Cn2cc3c(=O)n(Cc4cccc(F)c4)nc-3c3ccccc32)c1 ? Thanks!
Response given: 38

Challenge: Could you please provide reported activation (% of full agonist control) for O=c1c2cn(Cc3ccc(F)cc3)c3ccc(F)cc3c-2nn1Cc1ccc(F)cc1 ? Thanks!
Response given: 48.9

Challenge: Could you please provide reported activation (% of full agonist control) for CCOc1cc(C2C(C(=O)OC)=CN(Cc3ccc(Cl)cc3)C=C2C(=O)OC)ccc1O ? Thanks!
Response given: 37.6

Challenge: Could you please provide reported activation (% of full agonist control) for COC(=O)C1=CN(Cc2ccccc2)C=C(C(=O)OC)C1c1ccc(OC)c(OC)c1 ? Thanks!
Response given: 25.9

Challenge: Could you please provide reported activation (% of full agonist control) for O=C(CSc1nnc(Cc2cc(=O)[nH]c(=O)[nH]2)n1-c1ccc(Cl)cc1)N1CCc2ccccc21 ? Thanks!
Response given: 46.6

Challenge: Could you please provide reported activation (% of full agonist control) for Cn1cc(CNCc2cn[nH]c2-c2ccc(F)cc2)c(-c2ccc3c(c2)OCCO3)n1 ? Thanks!
Response given: 29.7

Challenge: Could you please provide reported activation (% of full agonist control) for Cc1ccc(-n2ncc3c(=O)[nH]c(SCC(=O)N4CCCc5ccccc54)nc32)cc1 ? Thanks!
Response given: 36.4

Challenge: Could you please provide reported activation (% of full agonist control) for O=S(=O)(NCC(c1ccco1)N1CCc2ccccc2C1)c1ccc(F)cc1 (centres undefined) ? Thanks!
Response given: 29.9

Attribution: PubChem BioAssay AID504452
